Below, each entry is listed with its recorded growth controlling degree, GLXMA.
- Tested on: soybean (Glycine max Merr.), GLXMA
- experimental_protocol: Test Example 2 post-emergence (foliage treatment) herbicidal activity, GLXMA
- Type: in vivo
- test_parameters: 63 g a.i./ha
The reply should contain only the number, in %.

Below: 2 compounds and their reported growth controlling degree, GLXMA.
COc1c(Cl)cc(F)c(-c2nn(C)c(OC(F)F)c2Cl)c1NC(=O)OCC(C)C :: 50
COc1c(Cl)cc(F)c(-c2nn(C)c(OC(F)F)c2Cl)c1NC(=O)c1cccc(Br)c1 :: 70

Here's the next entry for you.
QUERY: Report value: growth controlling degree, GLXMA, system: soybean (Glycine max Merr.), GLXMA, compound: CCOC(=O)C(C)Nc1c(OC)c(Cl)cc(F)c1-c1nn(C)c(OC(F)F)c1Cl (stereo not drawn)
RESULT: 70
